# system.under.test: PfENT1 (Plasmodium falciparum, UniProt Q8IDM6)
# Sequence (Q8IDM6 whole entry): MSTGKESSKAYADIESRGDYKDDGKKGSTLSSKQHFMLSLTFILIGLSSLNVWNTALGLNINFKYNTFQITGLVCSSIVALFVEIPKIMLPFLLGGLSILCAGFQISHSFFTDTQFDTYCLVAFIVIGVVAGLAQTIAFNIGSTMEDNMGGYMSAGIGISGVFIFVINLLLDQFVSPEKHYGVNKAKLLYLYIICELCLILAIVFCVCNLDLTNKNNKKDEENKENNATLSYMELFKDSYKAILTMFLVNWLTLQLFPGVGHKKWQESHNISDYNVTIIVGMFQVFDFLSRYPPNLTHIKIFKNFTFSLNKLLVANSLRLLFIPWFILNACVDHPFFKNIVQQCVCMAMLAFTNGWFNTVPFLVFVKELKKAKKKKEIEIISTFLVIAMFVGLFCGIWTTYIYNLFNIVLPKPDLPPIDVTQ
# procedure.summary: Yeast Kill Assay
# Format: cell-based
I'd be grateful if you could share measured IC50 for these entries.
Give bare numbers, in nM.

Recorded IC50, per entry:
1. COc1ccc(-c2nc(C(=O)Nc3cccc(-c4nnc5n4CCCCC5)c3)cs2)cc1OC; 630
2. CC(=O)Nc1nc(-c2c(F)cccc2F)cs1; 6310
3. O=C(Nc1ccccc1C(=O)NC1CC1)c1cccc(N2CCCC2=O)c1; 630

# batch size: 2; output IC50 per entry
1. CCn1cnnc1C1CCN(C(=O)c2cn3ccc(C)cc3n2)CC1
2. Cc1oc(-c2ccccc2)nc1C(=O)NCCN1CCCCCC1=O

A.
1260
1260
